- System: RARa homodimer (NR concentration 270 nM)
- assayOverview: PBM binding z-score (relative to random genomic background probes); higher = stronger binding; sequences stand for … in GC…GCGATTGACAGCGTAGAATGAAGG
Documented PBM binding z-score across a set of sequences

# inputSequence, experimentalTarget, PBM binding z-score
data = [
    ("CTACCAAGGTGAACAAGGTCGTGGATTACTATTC", "RARa homodimer (NR concentration 270 nM)", 0.0898),
    ("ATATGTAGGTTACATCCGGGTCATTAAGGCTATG", "RARa homodimer (NR concentration 270 nM)", 0.456),
    ("TCGAATAGGTTACCAATGGGGCATTCAGCTTTCT", "RARa homodimer (NR concentration 270 nM)", 0.281),
    ("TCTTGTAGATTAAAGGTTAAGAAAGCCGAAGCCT", "RARa homodimer (NR concentration 270 nM)", 1.4),
    ("CAGACTGGGGCAGAAAGGTTACCATACCATCCGG", "RARa homodimer (NR concentration 270 nM)", 0.536),
    ("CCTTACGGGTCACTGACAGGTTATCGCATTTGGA", "RARa homodimer (NR concentration 270 nM)", 0.262),
    ("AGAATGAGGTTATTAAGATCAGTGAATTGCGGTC", "RARa homodimer (NR concentration 270 nM)", 0.44),
    ("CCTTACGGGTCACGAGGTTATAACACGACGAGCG", "RARa homodimer (NR concentration 270 nM)", 0.574),
    ("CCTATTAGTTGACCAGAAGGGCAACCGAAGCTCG", "RARa homodimer (NR concentration 270 nM)", 2.07),
    ("TAGCCTAGGTCAGATCGGGCCATTATACGCTATA", "RARa homodimer (NR concentration 270 nM)", -0.736),
    ("TCATATAGGTAGAGGTGAAAGTCGAACGATATGA", "RARa homodimer (NR concentration 270 nM)", 0.173),
    ("CCTACTGGGCCAAAAAGGTGATTGATGCCGATAA", "RARa homodimer (NR concentration 270 nM)", -0.0492),
    ("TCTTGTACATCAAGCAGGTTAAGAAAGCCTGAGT", "RARa homodimer (NR concentration 270 nM)", -0.095),
    ("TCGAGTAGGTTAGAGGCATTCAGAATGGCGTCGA", "RARa homodimer (NR concentration 270 nM)", -0.955),
    ("TCATATAGGTAATTCAGGTGAAAGTCGGCATCTA", "RARa homodimer (NR concentration 270 nM)", 1.6),
    ("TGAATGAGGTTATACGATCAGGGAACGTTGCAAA", "RARa homodimer (NR concentration 270 nM)", 0.115),
    ("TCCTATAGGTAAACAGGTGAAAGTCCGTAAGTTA", "RARa homodimer (NR concentration 270 nM)", 0.325),
    ("CGAATTAGGTCAGAACAGGACAGTGAAGGATGAT", "RARa homodimer (NR concentration 270 nM)", 1.19),
    ("TCTTGTAGATCAAAGGTTAAGAGAGCCGAAGCCT", "RARa homodimer (NR concentration 270 nM)", 0.341),
    ("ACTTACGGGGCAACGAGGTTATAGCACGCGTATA", "RARa homodimer (NR concentration 270 nM)", 0.365),
    ("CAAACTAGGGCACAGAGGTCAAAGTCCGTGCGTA", "RARa homodimer (NR concentration 270 nM)", 1.61),
    ("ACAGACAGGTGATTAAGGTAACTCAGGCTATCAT", "RARa homodimer (NR concentration 270 nM)", 0.587),
    ("AATACAGGTTCACTAGGCCAGAGTAGGTACGAAT", "RARa homodimer (NR concentration 270 nM)", 0.374),
    ("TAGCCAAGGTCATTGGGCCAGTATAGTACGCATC", "RARa homodimer (NR concentration 270 nM)", 0.395),
    ("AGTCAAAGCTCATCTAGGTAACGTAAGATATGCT", "RARa homodimer (NR concentration 270 nM)", -0.0154),
    ("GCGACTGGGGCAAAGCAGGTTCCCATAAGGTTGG", "RARa homodimer (NR concentration 270 nM)", -1.06),
]

====

- Tested on: PXR:RXRa (NR concentration 270 nM, RXRa partner concentration 90 nM)
- assayOverview: PBM binding z-score (relative to random genomic background probes); higher = stronger binding; sequences stand for … in GC…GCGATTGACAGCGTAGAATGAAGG
Documented PBM binding z-score across a set of sequences

# inputSequence, PBM binding z-score
rows = [
    ("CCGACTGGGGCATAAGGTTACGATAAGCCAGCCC", 0.614),
    ("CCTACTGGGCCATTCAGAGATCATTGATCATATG", -0.546),
    ("CCTTTTAGTTGACCATAAGGGCAACCGAAGCTCG", 0.87),
    ("GCGACTGTGGCAAAGCAGGTTACCATAAGGTTGG", -0.184),
    ("CGTCCAAGGTCAAGGTCAGTGCAAGAGACTCGAA", 5.43),
    ("ACAGACAGGGGATGAAGGTAACTCAGGCTATCAT", 0.126),
    ("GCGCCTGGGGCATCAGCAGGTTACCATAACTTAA", 0.0887),
    ("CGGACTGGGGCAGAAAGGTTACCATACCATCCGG", 1.41),
    ("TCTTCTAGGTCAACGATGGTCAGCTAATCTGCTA", 2.23),
    ("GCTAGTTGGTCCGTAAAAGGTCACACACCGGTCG", 4.94),
    ("AATACAGGGTCATCGTAGGCCAGAGAACGCACAG", 5.14),
    ("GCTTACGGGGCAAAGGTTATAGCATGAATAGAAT", 2.99),
]
